Cited source for all entries: paper PMC3226828

Experiment: IV cassette pharmacokinetics in beagle dog
Settings: in vivo
Reported Endpoint: clearance (mL/min/kg)

[[record]]
compound = "O=C(Nc1ccc(N2C(=O)CC(c3ccccc3)C2=O)c(Cl)c1)c1ccccn1 (stereo not shown) [15k]"
assay_value = 7


====

Assay: IV cassette pharmacokinetics in rhesus monkey
Details: in vivo
Reported Endpoint: clearance (mL/min/kg)

[[record]]
compound = "O=C(Nc1ccc(N2C(=O)CC(c3ccccc3)C2=O)c(Cl)c1)c1ccccn1 (stereo not shown) [15k]"
assay_value = 3


====

Test: rat in vivo pharmacokinetics, IV and PO
Settings: in vivo, iv, 1 mg/kg
Reported Endpoint: half-life (min)

[[record]]
molecule = "O=C(Nc1ccc(N2C(=O)[C@@H]3[C@H](C2=O)[C@@H]2C=C[C@H]3C2)c(Cl)c1)c1ccccn1 [15f]"
reported_endpoint = "half-life"
assay_value = 40.4


====

Assay: rat in vivo pharmacokinetics, IV and PO
Conditions: in vivo, iv, 1 mg/kg, CL, IV 1 mg/kg, hydrochloride, 10% EtOH, 80% PEG-400, 10% saline
Reported Endpoint: clearance (mL/min/kg)

[[record]]
molecule = "O=C(Nc1ccc(N2C(=O)[C@@H]3[C@H](C2=O)[C@@H]2C=C[C@H]3C2)c(Cl)c1)c1ccccn1 [15f]"
assay_value = 37

[[record]]
molecule = "O=C(Nc1ccc(N2C(=O)CC(c3ccccc3)C2=O)c(Cl)c1)c1ccccn1 (stereo not drawn) [15k]"
assay_value = 5.4

[[record]]
molecule = "O=C(Nc1ccc(N2C(=O)CC3(CCCCC3)C2=O)c(Cl)c1)c1ccccn1 [15j]"
assay_value = 48


====

Assay: rat in vivo pharmacokinetics, IV and PO
Conditions: in vivo, iv, 1 mg/kg
Reported Endpoint: Vd (L/kg)

[[record]]
compound = "O=C(Nc1ccc(N2C(=O)[C@@H]3[C@H](C2=O)[C@@H]2C=C[C@H]3C2)c(Cl)c1)c1ccccn1 [15f]"
reported_endpoint = "Vd"
assay_value = 18

